Tested on: A. viscosus
Type: biochemical
Assay Context: strain T14V; β-naphthylamine liberated after 60 minutes, 37° C.
Peptide text beside a SMILES is read from it. * marks the point of attachment. βNA = c1ccc2cc(N*)ccc2c1
Aminopeptidase activity overview
Record the value in nmol, omitting the unit from your answer.

The cases that follow already have their Aminopeptidase activity on record.
NC(=O)[C@@H](N)CCC(=O)O
0
CC(C)C[C@H](N)C(=O)NCC(=O)O [Leu-Gly, Leucyl-glycine] (H-Leu-Gly-OH)
0

Task item: Name the reported Aminopeptidase activity value associated with the compound CC(C)C[C@H](NC(=O)[C@@H]1CCCN1C(=O)CN)C(=O)Nc1ccc2ccccc2c1 [Gly-Pro-Leu] (H-Gly-Pro-Leu-βNA)
Reply: 2

Task item: # Aminopeptidase activity lookup, item Cl.N=C(N)NCCC[C@H](NC(=O)CNC(=O)CNC(=O)OCc1ccccc1)C(=O)Nc1ccc2ccccc2c1
Reply: 0

Task item: Which measured Aminopeptidase activity value corresponds to C[C@H](N)C(=O)N[C@@H](C)C(=O)N[C@@H](Cc1ccccc1)C(=O)Nc1ccc2ccccc2c1 [Ala-Ala-Phe] (H-Ala-Ala-Phe-βNA) ?
Reply: 4

Task item: # input compound: CSCCC(N)C(=O)Nc1ccc2ccccc2c1 (racemic) ; wanted: its Aminopeptidase activity
Reply: 7

----------
System: Haemophilus aphrophilus
Test Description: Aminopeptidase activity on β-naphthylamide substrates
Format: biochemical
Assay Context: strain ATCC 19415; β-naphthylamine liberated after 60 minutes, 37° C.
Peptide text beside a SMILES is read from it. * marks the point of attachment. βNA = c1ccc2cc(N*)ccc2c1
Each entry below carries its recorded Aminopeptidase activity.

Solved cases (6 shown):
Cl.N=C(N)NCCC[C@H](NC(=O)CNC(=O)CNC(=O)OCc1ccccc1)C(=O)Nc1ccc2ccccc2c1 [N-CBz-Gly-Gly-Arg]
1 nmol
N=C(N)NCCC[C@H](NC(=O)[C@@H](N)CCCNC(=N)N)C(=O)O [Arg-Arg, Arginyl-arginine] (H-Arg-Arg-OH)
1 nmol
NC(=O)[C@@H](N)CCC(=O)O [α-Glu, α -glutamine]
0 nmol
CSCCC(N)C(=O)Nc1ccc2ccccc2c1 (racemic)
0 nmol
CC(C)C[C@H](NC(=O)[C@@H]1CCCN1C(=O)CN)C(=O)Nc1ccc2ccccc2c1 [Gly-Pro-Leu] (H-Gly-Pro-Leu-βNA)
0 nmol
CC(C)C[C@H](N)C(=O)NCC(=O)O [Leu-Gly, Leucyl-glycine] (H-Leu-Gly-OH)
0 nmol

Task item: Which Aminopeptidase activity value belongs to N=C(N)NCCC[C@H](NC(=O)CN)C(=O)O [Gly-Arg, Glycyl-arginine] (H-Gly-Arg-OH) ?
Reply: 0 nmol

Task item: // query Aminopeptidase activity value for entry C[C@H](N)C(=O)N[C@@H](C)C(=O)N[C@@H](Cc1ccccc1)C(=O)Nc1ccc2ccccc2c1 [Ala-Ala-Phe] (H-Ala-Ala-Phe-βNA)
Reply: 0 nmol

----------
Tested on: A. seminis
Assay type: biochemical
Assay Context: strain ATCC 15768; β-naphthylamine liberated after 60 minutes, 37° C.
Peptide text beside a SMILES is read from it. * marks the point of attachment. βNA = c1ccc2cc(N*)ccc2c1
Parameter: Aminopeptidase activity (nmol)
Write the answer as a number in nmol, unit excluded.

Here is how some molecules turned out for Aminopeptidase activity.
CC(C)C[C@H](NC(=O)[C@@H]1CCCN1C(=O)CN)C(=O)Nc1ccc2ccccc2c1 [Gly-Pro-Leu] (H-Gly-Pro-Leu-βNA)
0
C[C@H](N)C(=O)N[C@@H](C)C(=O)N[C@@H](Cc1ccccc1)C(=O)Nc1ccc2ccccc2c1 [Ala-Ala-Phe] (H-Ala-Ala-Phe-βNA)
0
CSCCC(N)C(=O)Nc1ccc2ccccc2c1 (racemic)
0
CC(C)C[C@H](N)C(=O)NCC(=O)O [Leu-Gly, Leucyl-glycine] (H-Leu-Gly-OH)
0
NC(=O)[C@@H](N)CCC(=O)O
0

Task item: # query: Aminopeptidase activity | item Cl.N=C(N)NCCC[C@H](NC(=O)CNC(=O)CNC(=O)OCc1ccccc1)C(=O)Nc1ccc2ccccc2c1 | system: A. seminis
Reply: 1
